- target_desc: GST-Hu-p50 (Homo sapiens, UniProt P19838 7-356)
- Sequence (P19838 7-356): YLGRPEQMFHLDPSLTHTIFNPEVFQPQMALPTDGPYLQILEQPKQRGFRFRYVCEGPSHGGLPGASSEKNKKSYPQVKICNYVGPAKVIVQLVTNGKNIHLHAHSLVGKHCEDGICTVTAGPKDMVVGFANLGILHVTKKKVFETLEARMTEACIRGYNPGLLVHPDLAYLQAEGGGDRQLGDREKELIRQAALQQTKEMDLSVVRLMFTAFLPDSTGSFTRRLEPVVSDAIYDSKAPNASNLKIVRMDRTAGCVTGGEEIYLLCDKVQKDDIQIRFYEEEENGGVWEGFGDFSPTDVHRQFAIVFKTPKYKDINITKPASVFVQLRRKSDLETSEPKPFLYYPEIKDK
- assay_notes: protein-binding microarray (PBM); PBM: ~300 nM protein, 6 mM HEPES pH 7.8, 80 mM KCl, 0.5 mM EDTA, 0.5 mM EGTA, 6% glycerol, 35 ng/ul poly-dIdC, 1% milk, 1 h, room temperature; Ap Aiptasia and Nv Nematostella (sea anemones) / Co Capsaspora / Aq Amphimedon (sponge) / Dm Drosophila / Hu human; RHD is the Rel homology domain; high values mean tight binding
- condition_set: dsDNA, one strand shown
Exercise: state measured binding signal for each of the sequences provided.
Numbers only, in z-score.

sequence_code=CCGATTAACATCAAAACAATCCCTGATGTTAATCGGGTCTTGATTCGCTTGACGCTGCTG output_unit=z-score result_value=2.64
sequence_code=CCGATTAACATCAGATGTCCCCCTGATGTTAATCGGGTCTTGATTCGCTTGACGCTGCTG output_unit=z-score result_value=3.96
sequence_code=CCGATTAACATCAAGGAATACCCTGATGTTAATCGGGTCTTGATTCGCTTGACGCTGCTG output_unit=z-score result_value=4.19
sequence_code=CCGATTAACATCACGGAAATTTATGATGTTAATCGGGTCTTGATTCGCTTGACGCTGCTG output_unit=z-score result_value=1.44

Working through the 7 sequences below one at a time, give binding signal for each.
1. CCGATTAACATCAGAGGTGCTTCTGATGTTAATCGGGTCTTGATTCGCTTGACGCTGCTG
2. CCGATTAACATCAGGGGTTCCACTGATGTTAATCGGGTCTTGATTCGCTTGACGCTGCTG
3. CCGATTAACATCAGAACATTCCCTGATGTTAATCGGGTCTTGATTCGCTTGACGCTGCTG
4. CCGATTAACATCACGGGAATCCCTGATGTTAATCGGGTCTTGATTCGCTTGACGCTGCTG
5. CCGATTAACATCACCGTTTTCCCTGATGTTAATCGGGTCTTGATTCGCTTGACGCTGCTG
6. CCGATTAACATCACCCAGGGAAATGATGTTAATCGGGTCTTGATTCGCTTGACGCTGCTG
7. CCGATTAACATCAAATAATTCCCTGATGTTAATCGGGTCTTGATTCGCTTGACGCTGCTG

Reply:
1.84
2.51
3.65
3.99
3.18
2.01
5.03

Need binding signal for each of these sequences.
1. CCGATTAACATCAATAGTTCCCCTGATGTTAATCGGGTCTTGATTCGCTTGACGCTGCTG
2. CCGATTAACATCAGGGGGTTAACTGATGTTAATCGGGTCTTGATTCGCTTGACGCTGCTG
3. CCGATTAACATCAGGGATTTCTATGATGTTAATCGGGTCTTGATTCGCTTGACGCTGCTG

Reply:
1. 5.26
2. 4.57
3. 3.37

Need binding signal for each of these sequences.
1. CCGATTAACATCACAAATGGGAATGATGTTAATCGGGTCTTGATTCGCTTGACGCTGCTG
2. CCGATTAACATCAGGGAATCCACTGATGTTAATCGGGTCTTGATTCGCTTGACGCTGCTG

Reply:
1.06
2.79

# batch size: 8; output binding signal per entry
1. CCGATTAACATCAGAATAACCCCTGATGTTAATCGGGTCTTGATTCGCTTGACGCTGCTG
2. CCGATTAACATCACCCCAGCCCCTGATGTTAATCGGGTCTTGATTCGCTTGACGCTGCTG
3. CCGATTAACATCACATACTCCCCTGATGTTAATCGGGTCTTGATTCGCTTGACGCTGCTG
4. CCGATTAACATCACTGGGAATTCTGATGTTAATCGGGTCTTGATTCGCTTGACGCTGCTG
5. CCGATTAACATCAGGGGAGTATATGATGTTAATCGGGTCTTGATTCGCTTGACGCTGCTG
6. CCGATTAACATCAAACAACCCCCTGATGTTAATCGGGTCTTGATTCGCTTGACGCTGCTG
7. CCGATTAACATCAACATTTTCCCTGATGTTAATCGGGTCTTGATTCGCTTGACGCTGCTG
8. CCGATTAACATCACGGACTTCCCTGATGTTAATCGGGTCTTGATTCGCTTGACGCTGCTG

Reply:
1: 4.22; 2: 2.68; 3: 3.33; 4: 3.22; 5: 3.33; 6: 5.05; 7: 4.21; 8: 1.25
